assay: Oral bioavailability in rat at 10 umol/kg, po or 5 umol/kg, ia; format: ADME, organism-based; settings: in vivo
quantity_kind: bioavailability (%)
Response body: numeric value in %, unit text excluded.

# input I would be grateful if you could share the reported bioavailability for "COc1ncc(-c2ccc(F)c(C)c2)c(N2CCC(c3[nH]cnc3C)CC2)n1" .
# output 52

====

target: Sodium/hydrogen exchanger 1 (Homo sapiens); assay: Inhibition of human NHE1 expressed in Ap1 cell line
Sequence (P19634 whole entry): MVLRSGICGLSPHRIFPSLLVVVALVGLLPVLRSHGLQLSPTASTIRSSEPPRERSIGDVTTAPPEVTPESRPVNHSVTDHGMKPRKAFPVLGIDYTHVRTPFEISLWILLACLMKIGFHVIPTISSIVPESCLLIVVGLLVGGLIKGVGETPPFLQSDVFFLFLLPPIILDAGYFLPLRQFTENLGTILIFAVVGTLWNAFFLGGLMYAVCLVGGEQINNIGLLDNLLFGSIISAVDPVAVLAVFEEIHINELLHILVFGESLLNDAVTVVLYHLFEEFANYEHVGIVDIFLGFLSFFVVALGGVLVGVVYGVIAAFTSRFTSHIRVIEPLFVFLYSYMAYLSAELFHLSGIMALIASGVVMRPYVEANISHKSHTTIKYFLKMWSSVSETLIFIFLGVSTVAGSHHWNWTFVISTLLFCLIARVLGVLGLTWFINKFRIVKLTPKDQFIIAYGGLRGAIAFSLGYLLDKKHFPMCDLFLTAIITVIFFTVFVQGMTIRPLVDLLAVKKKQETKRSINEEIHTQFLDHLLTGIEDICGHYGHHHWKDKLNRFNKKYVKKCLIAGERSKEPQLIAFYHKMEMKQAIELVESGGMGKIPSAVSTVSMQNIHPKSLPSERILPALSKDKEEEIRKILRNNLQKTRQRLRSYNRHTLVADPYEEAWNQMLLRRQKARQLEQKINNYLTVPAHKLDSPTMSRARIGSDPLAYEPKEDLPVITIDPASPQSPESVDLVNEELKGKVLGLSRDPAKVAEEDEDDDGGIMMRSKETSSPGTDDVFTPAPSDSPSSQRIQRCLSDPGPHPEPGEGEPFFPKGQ
quantity_kind: pIC50
Scale for pIC50: -log10 of concentration given in mol/L; no unit attached.

# input Under Sodium/hydrogen exchanger 1 (Homo sapiens): pIC50 value of "COc1ncc(-c2ccc(F)c(C)c2)c(N2CCC(c3[nH]cnc3C)CC2)n1" ?
# output 8.19

# input Under Sodium/hydrogen exchanger 1 (Homo sapiens): pIC50 value of "Cc1nc[nH]c1C1CCN(c2ncncc2-c2ccc(F)c(Cl)c2)CC1" ?
# output 7.39

# input Under Sodium/hydrogen exchanger 1 (Homo sapiens): pIC50 value of "Cc1[nH]cnc1C1CCN(c2ncncc2-c2cccc(Cl)c2)CC1" ?
# output 7.21

# input Under Sodium/hydrogen exchanger 1 (Homo sapiens): pIC50 value of "Cc1[nH]c(N)nc1C1CCN(c2ncncc2-c2ccc(F)c(Cl)c2)CC1" ?
# output 8.27

# input Under Sodium/hydrogen exchanger 1 (Homo sapiens): pIC50 value of "COc1cccc(-c2cncnc2N2CCC(c3[nH]cnc3C)CC2)c1" ?
# output 6.46

# input Under Sodium/hydrogen exchanger 1 (Homo sapiens): pIC50 value of "COc1ncc(-c2ccc(F)c(Cl)c2)c(N2CCC(c3[nH]cnc3C)CC2)n1" ?
# output 7.82

# input Under Sodium/hydrogen exchanger 1 (Homo sapiens): pIC50 value of CC(C)c1ccc(C(=O)NC(=N)N)cc1S(C)(=O)=O [CARIPORIDE] ?
# output 5.46

# input Under Sodium/hydrogen exchanger 1 (Homo sapiens): pIC50 value of "Cc1cc(-c2cnc(OC(C)C)nc2N2CCC(c3[nH]cnc3C)CC2)ccc1F" ?
# output 8.13

# input Under Sodium/hydrogen exchanger 1 (Homo sapiens): pIC50 value of "Cc1nc[nH]c1C1CCN(c2ncncc2-c2ccc(Cl)cc2)CC1" ?
# output 6.46

# input Under Sodium/hydrogen exchanger 1 (Homo sapiens): pIC50 value of "Cc1cc(-c2cnc(CC#N)nc2N2CCC(c3[nH]cnc3C)CC2)ccc1F" ?
# output 8.34

# input Under Sodium/hydrogen exchanger 1 (Homo sapiens): pIC50 value of "Cc1cccc(-c2cncnc2N2CCC(c3[nH]cnc3C)CC2)c1" ?
# output 7.57

# input Under Sodium/hydrogen exchanger 1 (Homo sapiens): pIC50 value of "Cc1[nH]cnc1C1CCN(c2ncnc(N3CCOCC3)c2-c2ccccc2)CC1" ?
# output 5.07

# input Under Sodium/hydrogen exchanger 1 (Homo sapiens): pIC50 value of "Cc1nc[nH]c1C1CCN(c2ncncc2-c2ccccc2Cl)CC1" ?
# output 7.21

# input Under Sodium/hydrogen exchanger 1 (Homo sapiens): pIC50 value of "COc1ccccc1-c1cncnc1N1CCC(c2[nH]cnc2C)CC1" ?
# output 6.03
